Reference source: patent US20240150440A1

List of EC50 values.
TEST SYSTEM: T1, SARS-CoV-2 Alpha Variant RBD (SARS-CoV-2 Alpha variant)
T1 construct: domain: RBD; coated on ELISA plates
EXPERIMENTAL DETAILS: ELISA, RBD coated
READOUT: EC50 (nM)

# BINDER, READOUT, OBSERVED VALUE
data = [
    ("PP906 MBP-5HVZ-S1b-E7-H6 (VHH, Form: Dimer) VHH: QVQLVESGGGLVQPGGSLRLSCAASGGEFSDNGLHWFRQAPGKQREFVATASSDGSTQYRDSVKGRFTISRDNAKNTVYLQMNSLKPEDTAVYYCTALLMSSAGEYDVWGQGTQVTVSS", "EC50", 1.97),
    ("PP904 MBP-5HVZ-R5b-C5-H6 (VHH, Form: Dimer) VHH: QVQLVESGGGLVQPGGSLRLSCAASGSPFKTQTVHWFRQAPGKGREWVASITSGSGTQYMDSVKGRFTISRDNAKNTVYLQMNSLKPEDTAVYYCAAANDGYGVDWGQGTQVTVSS", "EC50", 13),
    ("PP1112 MBP-5HVZ-PAPA-RN-28-H6 (VHH, Form: Dimer) VHH: QVQLVESGGGLVQPGGSLRLSCAASGSQFSHNLMSWFRQAPGKQREFVAAITSFGSTGYADSVKGRFTISRDNAKNTVYLQMNSLKPEDTAVYYCAALSSEDTSHYPRNYWGQGTQVTVSS", "EC50", 1.76),
    ("PP1095 MBP-5HVZ-PAPA-RN-2-H6 (VHH) VHH: QVQLVESGGGLVQPGGSLRLSCAASGSYFSKNAVHWYRQAPGKGREWVAALTNSGSGNYKDSVKGRFTISRDNAKNTVYLQMNSLKPEDTAVYYCTANISESTGQGYDYWGQGTQVTVSS", "EC50", 1.18),
    ("PP1102 MBP-5HVZ-PAPA-RN-17-H6 (VHH, Form: Dimer) VHH: QVQLVESGGGLVQPGGSLRLSCAASGSMYSRAVMHWFRQAPGKEREGVASIGRTGDSYYADSVKGRFTISRDNAKNTVYLQMNSLKPEDTAVYYCAADNLDVVYGNRYWGQGTQVTVSS", "EC50", 1.55),
    ("PP905 MBP-5HVZ-S1a-C4-H6 (VHH, Form: Dimer) VHH: QVQLVESGGGLVQPGGSLRLSCAASGSRDSINTAHWYRQAPGKAREWVASLDNSTTGSYADSVKGRFTISRDNAKNTVYLQMNSLKPEDTAVYYCAAVTGTPGGLGFYDYWGQGTQVTVSS", "EC50", 447),
    ("PP1148 MBP-5HVZ-PAPA-R5a-C5-H6 (VHH, Form: Dimer) VHH: QVQLVESGGGLVQPGGSLRLSCAASGDIFSINALHWFRQAPGKQREEVAAITSGGSTGYADSVKGRFTISRDNAKNTVYLQMNSLKPEDTAVYYCAAQQARGGLDSDYWGQGTQVTVSS", "EC50", 0.33),
    ("PP1149 MBP-5HVZ-PAPA-R5a-E5-H6 (VHH, Form: Dimer) VHH: QVQLVESGGGLVQPGGSLRLSCAASGYDFDILRMAWFRQAPGKEREMVAAITSAESVNYEDSVKGRFTISRDNAKNTVYLQMNSLKPEDTAVYYCATYDYTDDYGYASWGQGTQVTVSS", "EC50", 3.01),
]
